- target.desc: human ERβ ligand binding domain (LBD) (Homo sapiens, UniProt Q92731)
- experiment.notes: competitive fluorometric
- study.conditions: ratio of RBA ERβ to RBA ERα
Tick label 1 if β/α is 1 or greater. Tick label 0 if β/α is less than 1.

Ask | For this compound, is measured β/α 1 or higher? Oc1ccc(-c2cc(Br)c(-c3ccc(O)c(Cl)c3)[se]2)cc1Cl [Compound 6e]
Reply | label 0

Ask | Same read-out for Cc1cc(-c2cc(Br)c(-c3cc(C)c(O)c(C)c3)[se]2)cc(C)c1O [Compound 6d] ?
Reply | label 0

Ask | Now the compound Oc1ccc(-c2ccc(-c3ccc(O)cc3Cl)[se]2)c(Cl)c1 [Compound 2g]
Reply | label 1

Ask | Also Oc1ccc(-c2cc(-c3ccc(O)cc3)c(-c3ccc(O)cc3)[se]2)cc1 [Compound 8a, 2,3,5-Tris(4-hydroxyphenyl)selenophene] , if possible.
Reply | label 1

Ask | How about Cc1cc(-c2ccc(-c3cc(C)c(O)c(C)c3)[se]2)cc(C)c1O [Compound 2d] ?
Reply | label 1

Ask | Would you kindly repeat that for Cc1cc(-c2cc(-c3cc(C)c(O)c(C)c3)c(-c3cc(C)c(O)c(C)c3)[se]2)cc(C)c1O [Compound 8c] ?
Reply | label 0

Ask | Now consider Oc1ccc(-c2c[se]cc2-c2ccc(O)cc2)cc1 [Compound 4a, 3,4-Bis(4-hydroxyphenyl)selenophene] and answer again.
Reply | label 1

Ask | Cool, now Oc1ccc(-c2ccc(-c3ccc(O)cc3)[se]2)cc1 [Compound 2a, 2,5-Bis(4-hydroxyphenyl)selenophene]
Reply | label 1

Ask | What do you have for Oc1ccc(-c2c[se]cc2-c2ccc(O)c(F)c2)cc1F [Compound 4d] ?
Reply | label 1

Ask | Do the same for Cc1cc(-c2cc(Br)c(-c3ccc(O)c(C)c3)[se]2)ccc1O [Compound 6c] please
Reply | label 1

Ask | Try this compound next: Cc1cc(-c2c[se]cc2-c2ccc(O)c(C)c2)ccc1O [Compound 4c]
Reply | label 0

Ask | Would you mind doing Oc1ccc(-c2ccc(-c3ccc(O)cc3F)[se]2)c(F)c1 [Compound 2f] as well?
Reply | label 1

Ask | Please give the result for Oc1ccc(F)c(-c2ccc(-c3cc(O)ccc3F)[se]2)c1 [Compound 2i] too.
Reply | label 0

Ask | Now consider Oc1cc(-c2ccc(-c3ccc(F)c(O)c3)[se]2)ccc1F [Compound 2j] and answer again.
Reply | label 1

Ask | And for Oc1cc(-c2cc(Br)c(-c3ccc(F)c(O)c3)[se]2)ccc1F [Compound 6f] ?
Reply | label 0

Ask | Could you do the same for Oc1ccc(-c2ccc(-c3ccc(O)c(Cl)c3)[se]2)cc1Cl [Compound 2h] , please?
Reply | label 1

---

Give measured pEC50 for each item. Keep answers brief.
- target.desc: ERβ (Homo sapiens, UniProt Q92731)
- Sequence (Q92731 whole entry): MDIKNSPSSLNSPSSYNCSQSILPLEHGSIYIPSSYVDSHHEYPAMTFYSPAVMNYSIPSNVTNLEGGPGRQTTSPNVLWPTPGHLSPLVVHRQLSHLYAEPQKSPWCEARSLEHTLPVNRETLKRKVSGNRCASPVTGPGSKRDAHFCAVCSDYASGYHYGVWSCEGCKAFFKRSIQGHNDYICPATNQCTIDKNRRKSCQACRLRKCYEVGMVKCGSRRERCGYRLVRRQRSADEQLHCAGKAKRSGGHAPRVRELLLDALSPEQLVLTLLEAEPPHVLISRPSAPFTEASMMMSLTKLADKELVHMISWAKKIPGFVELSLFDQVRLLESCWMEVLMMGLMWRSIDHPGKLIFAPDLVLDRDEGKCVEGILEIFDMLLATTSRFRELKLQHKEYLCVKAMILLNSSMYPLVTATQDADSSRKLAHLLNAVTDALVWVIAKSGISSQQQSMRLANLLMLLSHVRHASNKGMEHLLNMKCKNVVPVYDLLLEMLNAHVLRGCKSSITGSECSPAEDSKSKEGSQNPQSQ
- experiment.notes: cell-based
# pEC50: negative log10 of molar concentration; output just the value

Ask | // pEC50 lookup, key: Oc1ccc(F)c(-c2ccc(-c3cc(O)ccc3F)[se]2)c1 [Compound 2i]
Reply | 6.89

Ask | Let us now turn to Cc1cc(O)cc(C)c1-c1ccc(-c2c(C)cc(O)cc2C)[se]1 [Compound 2e]
Reply | 6.36

Ask | // same read-out, input: Cc1cc(O)ccc1-c1cc(Br)c(-c2ccc(O)cc2C)[se]1 [Compound 6b]
Reply | 8.05

Ask | What about this molecule? Cc1cc(-c2cc(-c3ccc(O)c(C)c3)c(-c3ccc(O)c(C)c3)[se]2)ccc1O [Compound 8b]
Reply | 7.48

Source listed as paper PMC5405701.
